System: Treponema hyodysenteriae
Assay: in vitro antibacterial activity (MIC, agar dilution method), Test Examples 1-3
Type: cell-based
Conditions: Brachyspira hyodysenteriae, 48 h, strain 78/A; 37° C., 2 days, anaerobic; read-out: Minimum Inhibitory Concentration
A collection of compounds and their measured log10 MIC
log10 MIC, mg/L

Below: 3 compounds and their reported log10 MIC.
CCCC(=O)OC1C=CC(C)=CC(NC(=O)C(C)=O)C2(C)C(=O)OC(CC(O)C=CC(C)=CC1)C(C)C2=O (stereo not drawn) [Lankacidin C 8-butyrate]	-0.11
CC(=O)OC1C=CC(C)=CC(NC(=O)C(C)=O)C2(C)C(=O)OC(CC(O)C=CC(C)=CC1)C(C)C2=O (stereo not drawn) [Lankacidin C 8-acetate, lankacidin C 8-acetate]	-0.41
CC(=O)C(=O)NC1C=C(C)C=CC(O)CC=C(C)C=CC(OC(=O)c2ccccc2)CC2OC(=O)C1(C)C(=O)C2C (stereo not drawn) [Lankacidin C 14-benzoate, lankacidin C 14-benzoate]	0.80

input: Given CCC(=O)OC1C=CC(C)=CC(NC(=O)C(C)=O)C2(C)C(=O)OC(CC(O)C=CC(C)=CC1)C(C)C2=O (stereo not drawn) [Lankacidin C 8-propionate, lankacidin C 8-propionate] , report its log10 MIC on Treponema hyodysenteriae.
output: 0.19

input: Given CC(=O)C(=O)NC1C=C(C)C=CC(OC(=O)C(C)C)CC=C(C)C=CC(O)CC2OC(=O)C1(C)C(=O)C2C (stereo not drawn) [Lankacidin C 8-isobutyrate] , report its log10 MIC on Treponema hyodysenteriae.
output: 0.80

input: Given CC(=O)C(=O)NC1C=C(C)C=CC(O)CC=C(C)C=CC(OC(=O)C(C)C)CC2OC(=O)C1(C)C(=O)C2C (stereo not drawn) [Lankacidin C 14-isobutyrate] , report its log10 MIC on Treponema hyodysenteriae.
output: 1.10

input: Given CCC[C@@H]1C[C@@H](C(=O)N[C@@H]([C@H]2O[C@H](SC)[C@H](O)[C@@H](O)[C@H]2O)[C@@H](C)O)N(C)C1 [Lincomycin, reference compound] , report its log10 MIC on Treponema hyodysenteriae.
output: 1.70

input: Given CC(=O)OC1C=CC(C)=CC(NC(=O)C(C)=O)C2(C)C(=O)OC(CC(OC(C)=O)C=CC(C)=CC1)C(C)C2=O (stereo not drawn) [Lankacidin C 8,14-diacetate, lankacidin C 8,14-diacetate] , report its log10 MIC on Treponema hyodysenteriae.
output: 0.50

input: Given CC(=O)C(=O)NC1C=C(C)C=CC(O)CC=C(C)C=CC(OC=O)CC2OC(=O)C1(C)C(=O)C2C (stereo not drawn) [Lankacidin C 14-formate, lankacidin C 14-formate] , report its log10 MIC on Treponema hyodysenteriae.
output: 0.80

input: Given CCCC(=O)OC1C=CC(C)=CCC(O)C=CC(C)=CC(NC(=O)C(C)=O)C2(C)C(=O)OC(C1)C(C)C2=O (stereo not drawn) [Lankacidin C 14-butyrate] , report its log10 MIC on Treponema hyodysenteriae.
output: -0.11

input: Given CCCCC(=O)OC1C=CC(C)=CC(NC(=O)C(C)=O)C2(C)C(=O)OC(CC(O)C=CC(C)=CC1)C(C)C2=O (stereo not drawn) [Lankacidin C 8-valerate] , report its log10 MIC on Treponema hyodysenteriae.
output: 0.19

----------
Experiment: acute toxicity tests with mice
Conditions: mouse, in vivo, ip, intraperitoneal, read-out: intraperitoneal LD50
assayReadout: LD50

Below: 2 compounds and their reported LD50.
CC(=O)OC1C=CC(C)=CCC(O)C=CC(C)=CC(NC(=O)C(C)=O)C2(C)C(=O)OC(C1)C(C)C2=O (stereo not drawn)	8000 to 10000 mg/kg
CC(=O)C(=O)NC1C=C(C)C=CC(O)CC=C(C)C=CC(O)CC2OC(=O)C1(C)C(=O)C2C (stereo not drawn)	4500 mg/kg

Next compound, please.
input: Item CCC(=O)OC1C=CC(C)=CCC(O)C=CC(C)=CC(NC(=O)C(C)=O)C2(C)C(=O)OC(C1)C(C)C2=O (stereo not drawn) [Lankacidin C 14-propionate, lankacidin C 14-propionate] : provide LD50
output: > 10000 mg/kg
